These entries and their values trace back to patent US9340577B2.

system under test: A*0203 (Homo sapiens, UniProt P04439, A173T/D140Y/D185E/D98H/E277Q/G131W/G231S/I119V/I121R/I166T/I218V/L180W/L300P/L318F/N151K/N90K/P208A/P217A/Q86G/Q94H/R138H/R169H/T345S)
assay method text: biochemical
Assay type: binding
No end group written: not given here.
Note: every record was labeled by where its IC50 sits among lower segment = under 60 nM, middle segment = from 60 nM up to 200 nM, upper segment = 200 nM and over

RVYVCGIQNSV [Peptide 9013.0336]: lower segment
TVNNSGSYV [Peptide 9013.0064]: lower segment
NLAEGKEVLL [Peptide 9013.0134]: upper segment
KLTSLCVTL [Peptide 1537.03]: middle segment
YVIGTQQAV [Peptide 9013.0024]: lower segment

Please find the next sequence below.
Please let me know in which category the item TTVTTITVYV [Peptide 9013.0192] belongs.
upper segment
